// data source = patent US10287270B2

# PROCEDURE_SUMMARY: Plasma compound levels by mass spectroscopy in 3H diet mice
# Format: in vivo, mouse
# TEST_SETTINGS: male, C57BL/6N, plasma; mouse, 2 mg/kg once daily, 76 days, 2 hours after last dose; mean ± SEM; read-out: Plasma Compound Level
MEASURED_QUANTITY: concentration at 2 h

Which concentration at 2 h value belongs to Cl.Cl.NC/C(=C\F)COc1cnc(N2CC[C@H](O)C2)nc1 [Example 6, Dihydrochloride] ?
163 ng/mL
